Experiment: Pharmacokinetic study in rats
Assay type: in vivo
Conditions: whole blood; rat, IV
Description: The pharmacokinetic, blood-brain barrier penetration and ex vivo receptor occupancy studies were performed as described in Bonaventure, P., D. Nepomuceno, C. […] All blood samples were deproteinized by 1:4 dilution of the sample with acetonitrile with vigorous mixing. […] Samples were analyzed by LC-MS/MS. […] Oral, subcutaneous and intravenous pharmacokinetic parameters of the compound of formula (A) were determined in rats and are listed in Table 2 below.
parameter: AUC(0-inf) (µM·h)
API: value field is a number in µM·h; no unit string.

For this molecule ( CCN(CC)C(=O)C(c1ccccc1)N1CCN(c2ccc(NC(=O)c3ccccc3-c3cccnc3)cc2F)CC1 (racemic) [Cmpd (A)] ), measured AUC(0-inf) is 0.708

This collection of values is drawn from patent US8338426B2.
